Listing of entries alongside the reported EC50.
test.target: recombinant human GM-CSF protein (human, UniProt P04141 18-144)
Sequence (P04141 18-144): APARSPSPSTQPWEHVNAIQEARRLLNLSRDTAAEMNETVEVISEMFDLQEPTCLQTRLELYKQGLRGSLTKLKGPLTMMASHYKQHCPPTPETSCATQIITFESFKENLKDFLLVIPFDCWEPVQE
assay.summary: ELISA
Numbers only; they are read as nM.

binder: Hu50C5-21 (antibody, V domains shown) VH: EVQLVQSGAEVKKPGSSVKVSCKASGYIFTPYSIHWVRQAPGQGLEWIGYINPSTGYIEYNQHFKDRTTLTADKSTSTAYMELRSLRSEDTAVYYCARGGDYEGYFDYWGQGTTVTVSS VL: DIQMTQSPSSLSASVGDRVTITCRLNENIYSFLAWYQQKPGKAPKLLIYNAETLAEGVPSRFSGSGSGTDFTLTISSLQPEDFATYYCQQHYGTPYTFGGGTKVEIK
EC50, nM: 0.339

binder: Hu50C5-19 (antibody, V domains shown) VH: EVQLVQSGAEVKKPGSSVKVSCKASGYIFSPYSIHWVRQAPGQGLEWIGYINPSTGYIEYNQHFKDRTTLTADKSTSTAYMELRSLRSEDTAVYYCARGGDYEGYFDYWGQGTTVTVSS VL: DIQMTQSPSSLSASVGDRVTITCRLNENIYSFLAWYQQKPGKAPKLLVYNAETLAEDVPSRFSGSGSGTQFTLTISSLQPEDFATYYCQQHYGTPYTFGGGTKVEIK
EC50, nM: 0.272

binder: Hu50C5-22 (antibody, V domains shown) VH: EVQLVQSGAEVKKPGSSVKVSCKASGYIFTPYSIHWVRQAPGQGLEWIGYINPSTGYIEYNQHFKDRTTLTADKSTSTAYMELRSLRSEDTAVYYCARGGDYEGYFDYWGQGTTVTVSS VL: DIQMTQSPSSLSASVGDRVTITCRLNENIYSFLAWYQQKPGKAPKLLVYNAETLAEGVPSRFSGSGSGTDFTLTISSLQPEDFATYYCQQHYGTPYTFGGGTKVEIK
EC50, nM: 0.889

binder: Hu50C5-24 (antibody, V domains shown) VH: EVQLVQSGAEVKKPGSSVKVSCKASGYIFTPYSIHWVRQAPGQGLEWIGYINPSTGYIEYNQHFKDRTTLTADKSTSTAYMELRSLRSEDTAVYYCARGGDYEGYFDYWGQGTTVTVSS VL: DIQMTQSPSSLSASVGDRVTITCRLNENIYSFLAWYQQKPGKAPKLLVYNAETLAEDVPSRFSGSGSGTQFTLTISSLQPEDFATYYCQQHYGTPYTFGGGTKVEIK
EC50, nM: 0.305

Name the reported EC50 value associated with the binder Hu50C5-18 (antibody, V domains shown) VH: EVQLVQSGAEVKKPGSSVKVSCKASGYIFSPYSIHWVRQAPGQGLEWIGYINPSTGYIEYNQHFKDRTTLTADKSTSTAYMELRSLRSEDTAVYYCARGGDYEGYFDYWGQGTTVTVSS VL: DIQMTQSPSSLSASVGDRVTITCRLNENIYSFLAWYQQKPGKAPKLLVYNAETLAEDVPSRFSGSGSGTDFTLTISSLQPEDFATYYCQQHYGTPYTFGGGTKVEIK
0.612

Origin of the recorded values: patent US20180362632A1
